Where do the numbers come from? From ChEMBL document CHEMBL1201862.

Test system: NCI-H23
Assay: NCI tumour cell line growth inhibition, 48 h
Activity calls are given as the source filed them. No stated cut-off is given here; in the data, active = GI50 up to about 1.1 µM and inactive = higher. Where a SMILES comes first, the peptide text is derived from it. [ ]: non-standard residue; d: D form. The star is where a group is joined. Phe(4-NO2) = N[CH](Cc1ccc([N+](=O)[O-])cc1)C(=O)O; Boc = CC(C)(C)OC(=O)*; OBn = c1ccc(CO*)cc1
One label from this list, please: active, inactive

Worked set:
| Compound | Tested Target | Group Label |
| --- | --- | --- |
| CCOc1ccccc1/N=N/C1C(=O)N(C(=O)CC(=O)Nc2ccccc2Cl)N=C1C (centres undefined) | NCI-H23 | inactive |
| C=CC[C@H](N=C(SC)SC)C(=O)N1C(=O)N(C)[C@@H](C)[C@H]1c1ccccc1 | NCI-H23 | inactive |
| [N-]=[N+]=Nc1c(Br)c(=O)[nH]c(=O)n1COCCO | NCI-H23 | inactive |
| CN(C)CCCSc1nc2c(c(=N)n1-c1ccccc1)c(=S)n(-c1ccccc1)c(=S)n2-c1ccccc1 | NCI-H23 | inactive |
| CC1Oc2cc3c(-c4c(O)cc(O)c5c(O)c6c(cc45)OC(C)C(C)C6=O)c(O)cc(O)c3c(O)c2C(=O)C1C (centres undefined) | NCI-H23 | active |

Entry `O=C(CO[N+](=O)[O-])OC/C=C/c1ccccc1` : call = ?
inactive

# iterate: `CC1=NN(c2nc(N)nc(/C(C#N)=C/c3ccncc3)n2)C(C)(C)C1`
inactive

# iterate: COC(=O)CCC(NC(=O)OC(C)(C)C)C(=O)NC(Cc1ccc([N+](=O)[O-])cc1)C(=O)NCC(=O)OCc1ccccc1 (centres undefined) (Boc-Glu(OMe)-[Phe(4-NO2)]-Gly-OBn; configuration not given here)
inactive

# iterate: CC1=C(C(=O)OC2CC3CCC2(C)C3(C)C)C2Nc3ccccc3N(C)C2O1 (centres undefined)
inactive

# iterate: `CCOC(=O)c1ccc(N2C(=O)Cc3ccccc3C2=O)cc1`
inactive

# iterate: O=C(Nc1ccc(Cl)c(Cl)c1)C1C(=O)N(c2ccc(Cl)c(Cl)c2)C(=O)/C1=N\O (centres undefined)
inactive

# iterate: `COc1ccc(-c2cc(-c3ccncc3)nc(N)c2-c2ccc(F)cc2)cc1`
inactive

# iterate: `O=[N+]([O-])c1ccc(CSc2c3ccccc3nc3ccccc23)cc1`
inactive

# iterate: `CN1CCN(CCCCN2c3ccccc3Sc3ccc(N=[N+]=[N-])cc32)CC1`
inactive

----------
Tested on: RXF 393
Test: NCI tumour cell line growth inhibition, 48 h
Calls of active or inactive are those of the source. Cut-off read from the data, not from the text of the source: active = GI50 up to about 1.1 µM and inactive = higher.
Measure Name: GI50

| Compound | GI50 |
| --- | --- |
| O=C(c1ccco1)N(C(=O)N1CCC(c2ccccc2)CC1)c1ccccc1 | 34 µM (inactive) |

Please give the measured GI50 for this compound: `CCOC(=O)c1oc2ccc([N+](=O)[O-])c3c2c1CCC3`
26 µM (inactive)

# iterate: `CCOC(=O)c1c(-c2ccccc2)[nH]c2ccc(Cl)cc2c1=O`
35 µM (inactive)

# iterate: `C=CC[C@H](N=C(SC)SC)C(=O)N1C(=O)N(C)[C@@H](C)[C@H]1c1ccccc1`
33.8 µM (inactive)

# iterate: `COC(=O)c1cn(CCCC(=O)O)nn1`
> 100 µM (inactive)

# iterate: `NCCNc1ncnc2ccc(Cl)cc12`
> 100 µM (inactive)

# iterate: `O=C1C=C(NCCc2cc(Br)c(O)c(Br)c2)C(=O)c2[nH]cnc21`
19.5 µM (inactive)

# iterate: `CCOC(=O)c1c(NS(=O)(=O)c2ccc(Br)cc2)sc2c1CCCC2`
2.67 µM (inactive)

# iterate: `O=C(Nc1sccc1S(=O)(=O)c1ccc(Cl)cc1)c1ccc(Cl)cc1Cl`
> 100 µM (inactive)

# iterate: Clc1ccc2c(NC3CCC(N4CCCCC4)CC3)ccnc2c1 (centres undefined)
18.2 µM (inactive)
